assay: Cell growth inhibition, CellTiter-Glo Luminescent Cell Viability Assay; assay type: cell-based; conditions: MOLM-13, 96 h, read-out: Cell Growth Inhibition IC50 (μM) MOLM13, MOLM13 cells, 4 days, CellTiter-Glo
Just a reminder that ties go to 0.0: only IC50 strictly below 0.8 µM counts as 1.0.

# count of solved cases: 5
- MOLECULE: "CNC(=O)N[C@H]1CCC[C@@H]1C1(C2CCN(CC3CN(c4ccc(S(=O)(=O)c5cnn(C)c5)cc4)C3)CC2)CN(C)Cc2ccccc21 (mixture of isomers)"
  LABEL VALUE: 0.0
- MOLECULE: "CC(=O)O[C@H]1CCC[C@@H]1C(C#N)(c1ccccc1)C1CCN(CC2CN(c3ccc(S(=O)(=O)C4CC4)cc3)C2)CC1 (mixture of isomers)"
  LABEL VALUE: 0.0
- MOLECULE: "CNC(=O)O[C@H]1CCC[C@@H]1C(Cn1ccnc1)(c1ccccc1)C1CCN(CC2CN(c3ccc(Cl)cc3)C2)CC1 (mixture of isomers)"
  LABEL VALUE: 1.0
- MOLECULE: "CNC(=O)N[C@H]1CCC[C@@H]1C1(C2CCN(CC3CN(c4ccc(S(=O)(=O)c5ccncc5)cc4)C3)CC2)CN(C)Cc2ccccc21 (mixture of isomers)"
  LABEL VALUE: 1.0
- MOLECULE: "CNC(=O)O[C@H]1CCC[C@@H]1C(Cn1ccnc1C)(c1cccc(F)c1)C1CCN(CC2CN(c3ccc(S(=O)(=O)c4cnn(C)c4)cc3)C2)CC1 (mixture of isomers)"
  LABEL VALUE: 1.0

## Input State whether 0.8 µM exceeds IC50 recorded for CN1Cc2ccccc2C(C2CCCC2)(C2CCN(CCCOc3ccc(C#N)cc3)CC2)C1 (stereo not drawn) .
## Output 0.0

## Input Also need COC(=O)N[C@H]1CCC[C@@H]1C(Cn1ccnc1)(c1ccccc1)C1CCN(CC2CN(c3ccc(S(=O)(=O)c4cnn(C)c4)cc3)C2)CC1 (mixture of isomers) , thanks.
## Output 1.0

## Input Now this one: COC(=O)N[C@H]1CCC[C@@H]1C(C#N)(c1ccccc1)C1CCN(CC2(C)CN(c3ccc(S(=O)(=O)c4cnn(C)c4)cc3)C2)CC1 (mixture of isomers)
## Output 0.0

## Input Also, CC(=O)N[C@@H]1CCC[C@H]1C1(C2CCN(CC3CN(c4ccc(S(=O)(=O)c5ccncc5)cc4)C3)CC2)CN(C)Cc2ccccc21 (mixture of isomers) please.
## Output 0.0

* * *

target: menin protein (Homo sapiens (Human)); assay: biochemical; assay type: binding; conditions: FP competitive binding; menin protein 4 nM, FAM-MM2 probe 2 nM; read-out: Menin Binding Affinity IC50
Sequence (O00255 whole entry): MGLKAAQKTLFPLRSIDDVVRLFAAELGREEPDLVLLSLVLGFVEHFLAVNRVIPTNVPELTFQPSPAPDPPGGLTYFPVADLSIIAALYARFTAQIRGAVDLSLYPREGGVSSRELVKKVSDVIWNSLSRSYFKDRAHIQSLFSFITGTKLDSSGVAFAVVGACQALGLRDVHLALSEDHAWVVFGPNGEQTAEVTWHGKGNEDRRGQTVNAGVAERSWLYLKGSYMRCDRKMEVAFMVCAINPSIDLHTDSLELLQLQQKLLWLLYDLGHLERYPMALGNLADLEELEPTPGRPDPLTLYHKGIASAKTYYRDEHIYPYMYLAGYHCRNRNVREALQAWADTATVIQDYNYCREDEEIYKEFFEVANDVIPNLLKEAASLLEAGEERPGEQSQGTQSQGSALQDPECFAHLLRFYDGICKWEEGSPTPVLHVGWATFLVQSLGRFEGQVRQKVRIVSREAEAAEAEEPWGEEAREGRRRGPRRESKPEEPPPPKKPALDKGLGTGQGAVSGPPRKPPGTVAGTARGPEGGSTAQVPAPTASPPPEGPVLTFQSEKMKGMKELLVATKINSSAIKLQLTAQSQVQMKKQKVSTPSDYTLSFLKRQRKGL
OBSERVED PROPERTY: IC50 (µM)
Answers are plain numbers, in µM.

Answer for every listed entry: what is its IC50? The entries follow.
1. N#Cc1ccc(OCCCN2CCC(C3(c4ccccc4)NCCc4ccccc43)CC2)cc1 (stereo not drawn) [compound 246]
2. N#Cc1cc2ccc(C(=O)N[C@H]3CC[C@H](C4(C5CCCC5)NCCc5ccccc54)CC3)cc2[nH]1 (stereo partly drawn) [compound 81]

## Output
1: 35.6; 2: 1.9

// for each compound below, give its IC50
1. FCC1(CF)CC(N2CCC(C3(C4CCCC4)NCCc4ccccc43)CC2)C1 (stereo not drawn) [compound 56]
2. CNC(=O)O[C@@H]1CCC[C@H]1C(C#N)(c1ccccc1)C1CCN(CC2CN(c3ccc(C(=O)OC)cc3)C2)CC1 (mixture of isomers) [compound 374]
3. CC(=O)O[C@H]1CCC[C@@H]1C(C#N)(c1cccc(F)c1)C1CCN(CC2CN(c3ccc(CC(F)(F)F)cc3)C2)CC1 (mixture of isomers) [compound 419]
4. CN1Cc2ccccc2C(c2ccccn2)(C2CCN(CC3CN(c4ccc(S(C)(=O)=O)cc4)C3)CC2)C1 (stereo not drawn) [compound 170]

## Output
1: 18.2; 2: 4.7; 3: 0.293; 4: 47.6

Hi! Can you tell me IC50 for each of these compounds?
1. CCN1Cc2ccccc2C(C2CCN(CC3CN(c4ccc(S(=O)(=O)c5ccccc5)cc4)C3)CC2)([C@H]2CCC[C@@H]2NC(=O)NC)C1 (mixture of isomers) [compound 290]
2. CNC(=O)N[C@@H]1CCC[C@H]1C(CNC(=O)c1cocn1)(c1ccccc1)C1CCN(CC2CN(c3ccc(C#N)cc3)C2)CC1 (mixture of isomers) [compound 379]
3. CNC(=O)O[C@H]1CCC[C@@H]1C(C#N)(c1ccccc1)C1CCN(CC2CN(c3ccc(S(=O)(=O)c4ccccc4)cc3)C2)CC1 (mixture of isomers) [compound 225]

## Output
[0.009, 3.8, 0.009]
